# Test description: Inhibition of SGK
Outcome measure: Ki (nM)
A number alone suffices; assume nM.

Write down Ki measured for item `O=C1N=C(NCc2cccs2)S/C1=C/c1ccc2ncccc2c1`
497

---

# Target or test system: Serine/threonine-protein kinase PAK 4 (Homo sapiens) (UniProt O96013)
# Sequence (O96013 whole entry, looked up): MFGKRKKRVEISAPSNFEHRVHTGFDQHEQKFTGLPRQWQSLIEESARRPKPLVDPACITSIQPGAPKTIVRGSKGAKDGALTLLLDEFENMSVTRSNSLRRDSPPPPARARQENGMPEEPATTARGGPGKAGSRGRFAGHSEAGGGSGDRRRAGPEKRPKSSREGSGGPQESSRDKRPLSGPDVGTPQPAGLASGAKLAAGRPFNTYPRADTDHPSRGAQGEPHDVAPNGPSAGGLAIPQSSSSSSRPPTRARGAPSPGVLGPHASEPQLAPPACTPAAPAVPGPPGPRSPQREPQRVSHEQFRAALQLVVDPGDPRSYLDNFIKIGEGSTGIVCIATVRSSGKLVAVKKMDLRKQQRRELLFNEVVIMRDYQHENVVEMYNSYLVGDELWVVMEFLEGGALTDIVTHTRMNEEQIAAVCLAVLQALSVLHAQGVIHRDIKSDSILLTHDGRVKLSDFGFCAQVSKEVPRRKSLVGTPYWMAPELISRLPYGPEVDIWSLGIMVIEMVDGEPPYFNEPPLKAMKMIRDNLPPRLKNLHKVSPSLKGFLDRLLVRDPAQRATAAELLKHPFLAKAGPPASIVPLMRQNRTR
Mark True for ΔTm under 0.9 °C, False if at or over.

INSERT INTO measurements (compound, class) VALUES
  ('Oc1cccc(-c2nc(N3CCOCC3)c3oc4ncccc4c3n2)c1', 'True'),
  ('COc1cc(OC)c(/C=C2\C(=O)Nc3ccccc32)c(OC)c1', 'True');

Lab note: ΔTm threshold 0.9 °C. Does this compound come in strictly under it? `Cc1cc(C=C2C(=O)C=CC2=O)cc(C)c1O`
True

Lab note: ΔTm threshold 0.9 °C. Does this compound come in strictly under it? COc1ccc2c(c1)/C(=C/c1cnc[nH]1)C(=O)N2 [SU-9516]
False

Lab note: ΔTm threshold 0.9 °C. Does this compound come in strictly under it? `COc1cc2c(cc1OC)-c1n[nH]c(Nc3cccc(F)c3)c1C2`
True

Lab note: ΔTm threshold 0.9 °C. Does this compound come in strictly under it? `COc1cc2ncnc(Nc3cccc(Br)c3)c2cc1OC`
True

Lab note: ΔTm threshold 0.9 °C. Does this compound come in strictly under it? `N#C/C(=C(/N)Sc1ccc(N)cc1)c1ccccc1C(F)(F)F`
False

Lab note: ΔTm threshold 0.9 °C. Does this compound come in strictly under it? `NCCNc1ncc(C(N)=O)c(Nc2cccc(C(F)(F)F)c2)n1`
False

Lab note: ΔTm threshold 0.9 °C. Does this compound come in strictly under it? `CN1CCc2[nH]c(=S)c(C#N)c(-c3cccs3)c2C1`
True

Lab note: ΔTm threshold 0.9 °C. Does this compound come in strictly under it? `COc1ccc(S(=O)(=O)N(CCO)c2ccccc2CN(C)C/C=C/c2ccc(Cl)cc2)cc1`
True

---

Observed ΔTm for Ribosomal protein S6 kinase alpha-3 (Homo sapiens) (UniProt P51812), reported per entry below.
A number alone suffices; assume °C.

Known results for compounds:
INSERT INTO assay_data (compound, units, observed_value) VALUES
  ('Brc1c(Br)c(Br)c2[nH]nnc2c1Br', '°C', 1.7),
  ('NCCNS(=O)(=O)c1cccc2c(Cl)cccc12', '°C', 0.2);

Write down ΔTm measured for item `O=C(Nc1cccc(Nc2cc(Nc3cccc(C(F)(F)F)c3)ncn2)c1)C1CC1`
2.6

Write down ΔTm measured for item CN(C)c1ccc(CC2C(=O)Nc3ccccc32)cc1 (stereo not given)
0.9

Write down ΔTm measured for item `NC1=NC(=O)/C(=C2\CCNC(=O)c3[nH]c(Br)cc32)N1`
6.3

Write down ΔTm measured for item `Cc1nc(N)sc1-c1ccnc(Nc2cccc([N+](=O)[O-])c2)n1`
10.7

Write down ΔTm measured for item CSc1nc(-c2ccc(F)cc2)c(-c2ccnc(NC(C)c3ccccc3)c2)[nH]1 (racemic)
0.2

Write down ΔTm measured for item `O=[N+]([O-])c1ccc(-c2nc(-c3ccc(F)cc3)c(-c3ccncc3)[nH]2)cc1`
0.7

Write down ΔTm measured for item `C#Cc1cccc(Nc2ncnc3cc(OCCOC)c(OCCOC)cc23)c1`
6.3

Write down ΔTm measured for item `CN(C)S(=O)(=O)c1ccc2c(c1)/C(=C/c1cc3c([nH]1)CCCC3)C(=O)N2`
-0.1

---

# Target or test system: CDK6/cyclin D3 (Homo sapiens, UniProt Q00534)
# Sequence (P30281 whole entry): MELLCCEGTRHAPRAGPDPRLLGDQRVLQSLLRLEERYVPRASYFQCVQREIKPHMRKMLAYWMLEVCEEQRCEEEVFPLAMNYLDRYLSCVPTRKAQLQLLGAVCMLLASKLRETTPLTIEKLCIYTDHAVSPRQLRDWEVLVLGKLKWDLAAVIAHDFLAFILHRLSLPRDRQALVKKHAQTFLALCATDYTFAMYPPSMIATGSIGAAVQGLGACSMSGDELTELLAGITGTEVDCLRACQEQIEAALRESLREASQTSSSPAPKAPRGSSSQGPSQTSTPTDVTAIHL
# Sequence (Q00534 whole entry): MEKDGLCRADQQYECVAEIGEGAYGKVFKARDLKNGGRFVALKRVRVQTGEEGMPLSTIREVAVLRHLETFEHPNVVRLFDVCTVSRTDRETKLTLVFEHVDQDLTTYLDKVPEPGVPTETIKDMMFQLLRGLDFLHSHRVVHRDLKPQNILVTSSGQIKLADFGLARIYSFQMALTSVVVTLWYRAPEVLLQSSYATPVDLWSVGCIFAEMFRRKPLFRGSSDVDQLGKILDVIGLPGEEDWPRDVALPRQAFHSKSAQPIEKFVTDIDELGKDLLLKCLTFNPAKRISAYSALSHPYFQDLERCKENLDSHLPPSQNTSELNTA
# Test description: Inhibition of Cdk6/cyclin D3
Outcome measure: IC50

Write down IC50 measured for item `Cn1cnc2c(NCc3ccccc3)nc(NCCO)nc21`
> 250 µM

---

# Target or test system: Serine/threonine-protein kinase PAK 6 (Homo sapiens) (UniProt Q9NQU5)
# Sequence (Q9NQU5 whole entry, looked up): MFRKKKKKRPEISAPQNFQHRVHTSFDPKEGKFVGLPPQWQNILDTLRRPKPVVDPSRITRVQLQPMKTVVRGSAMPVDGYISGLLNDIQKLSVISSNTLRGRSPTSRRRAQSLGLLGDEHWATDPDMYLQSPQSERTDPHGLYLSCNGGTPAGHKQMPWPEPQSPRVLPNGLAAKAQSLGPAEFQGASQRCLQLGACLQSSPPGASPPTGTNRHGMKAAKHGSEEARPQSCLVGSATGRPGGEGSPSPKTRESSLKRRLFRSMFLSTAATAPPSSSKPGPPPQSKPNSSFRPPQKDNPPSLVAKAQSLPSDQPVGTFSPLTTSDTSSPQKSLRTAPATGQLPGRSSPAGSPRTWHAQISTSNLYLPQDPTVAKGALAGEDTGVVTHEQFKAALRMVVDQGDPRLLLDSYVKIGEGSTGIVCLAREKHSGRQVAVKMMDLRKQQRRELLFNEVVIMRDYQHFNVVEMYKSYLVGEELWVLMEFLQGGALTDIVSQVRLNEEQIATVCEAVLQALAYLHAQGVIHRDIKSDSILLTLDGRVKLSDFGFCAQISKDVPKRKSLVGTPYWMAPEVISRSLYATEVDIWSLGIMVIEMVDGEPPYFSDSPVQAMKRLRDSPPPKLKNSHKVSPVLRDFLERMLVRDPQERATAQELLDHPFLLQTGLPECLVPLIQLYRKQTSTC
Each entry falls in a class defined on ΔTm; the bands are bottom end = under 0 °C, midrange = from 0 °C up to 0.8 °C, top end = 0.8 °C and over

Reference set, count: 5
INSERT INTO measurements (structure_smiles, class) VALUES
  ('Cc1ccc(NC(=O)c2cccc(N(C)C)c2)cc1NC(=O)c1ccc(O)cc1', 'midrange'),
  ('O=C1c2ccccc2-c2n[nH]c3cccc1c23', 'top end'),
  ('O=C1Nc2ccc(I)cc2/C1=C\c1cc(Br)c(O)c(Br)c1', 'bottom end'),
  ('O=C(Nc1cccc(Nc2nccc(Nc3cccc(C(F)(F)F)c3)n2)c1)C1CC1', 'bottom end'),
  ('Cc1nc(N)sc1-c1ccnc(Nc2cccc([N+](=O)[O-])c2)n1', 'bottom end');

Textbook exercise: identify the category of the compound given here, `COc1ccc2c(c1)/C(=C/c1cnc[nH]1)C(=O)N2` , according to its measured value.
top end

Textbook exercise: identify the category of the compound given here, `O=c1c(O)c(-c2ccc(O)c(O)c2)oc2cc(O)cc(O)c12` , according to its measured value.
top end

Textbook exercise: identify the category of the compound given here, `COc1ccc(COc2ccc(Cc3cnc(N)nc3N)cc2OC)cc1` , according to its measured value.
midrange

---

# Target or test system: Serine/threonine-protein kinase 4 (Homo sapiens) (UniProt Q13043)
# Sequence (whole entry): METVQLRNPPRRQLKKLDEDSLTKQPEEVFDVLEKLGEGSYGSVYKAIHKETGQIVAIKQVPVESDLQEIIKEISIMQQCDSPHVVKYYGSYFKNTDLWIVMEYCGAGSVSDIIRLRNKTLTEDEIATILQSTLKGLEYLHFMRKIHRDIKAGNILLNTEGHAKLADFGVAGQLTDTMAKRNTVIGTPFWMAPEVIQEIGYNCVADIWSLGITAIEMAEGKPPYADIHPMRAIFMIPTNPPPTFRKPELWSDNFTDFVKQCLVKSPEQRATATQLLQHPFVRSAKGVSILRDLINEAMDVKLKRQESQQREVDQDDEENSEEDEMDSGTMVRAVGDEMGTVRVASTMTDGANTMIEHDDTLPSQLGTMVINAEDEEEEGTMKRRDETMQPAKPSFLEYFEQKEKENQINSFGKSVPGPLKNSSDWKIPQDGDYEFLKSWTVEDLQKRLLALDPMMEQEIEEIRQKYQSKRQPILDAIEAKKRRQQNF
Returns one of met or not met; met when ΔTm is >= 1 °C.

Reference set, count: 5
INSERT INTO measurements (molecule, class) VALUES
  ('CCOc1cc2ncnc(Nc3cccc(Br)c3)c2cc1OCC', 'met'),
  ('O=C(Nc1cccc(Nc2cc(Nc3cccc(C(F)(F)F)c3)ncn2)c1)C1CC1', 'met'),
  ('COC(=O)[C@]1(O)C[C@@H]2O[C@@]1(C)n1c3ccccc3c3c4c(c5c6ccccc6n2c5c31)C(=O)NC4 (single isomer, unassigned)', 'met'),
  ('CN(C)c1ncnc2nc[nH]c12', 'met'),
  ('CCOc1cc(/C=C(\C#N)C(N)=O)cc(CSc2ccccc2)c1O', 'not met');

Let us examine a further case.
Test whether the molecule `NCCNS(=O)(=O)c1cccc2c(Cl)cccc12` records ΔTm of 1 °C or higher.
not met

---

# Target or test system: Serine/threonine-protein kinase VRK3 (Homo sapiens) (UniProt Q8IV63)
# Sequence (Q8IV63 whole entry): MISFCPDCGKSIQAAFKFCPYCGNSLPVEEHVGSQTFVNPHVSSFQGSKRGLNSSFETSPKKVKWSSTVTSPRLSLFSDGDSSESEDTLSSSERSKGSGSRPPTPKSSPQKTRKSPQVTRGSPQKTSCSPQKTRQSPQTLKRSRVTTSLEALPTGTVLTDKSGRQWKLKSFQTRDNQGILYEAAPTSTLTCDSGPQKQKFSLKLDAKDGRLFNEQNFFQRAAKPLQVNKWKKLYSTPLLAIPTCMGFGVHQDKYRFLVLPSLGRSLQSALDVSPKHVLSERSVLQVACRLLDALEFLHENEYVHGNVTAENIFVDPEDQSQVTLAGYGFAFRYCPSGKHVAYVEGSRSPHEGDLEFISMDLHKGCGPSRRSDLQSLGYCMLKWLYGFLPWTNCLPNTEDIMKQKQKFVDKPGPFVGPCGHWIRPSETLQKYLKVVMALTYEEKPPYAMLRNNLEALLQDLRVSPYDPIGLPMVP
Catalogue of ΔTm values
Report as: number unit

INSERT INTO measurements (compound, observed_value) VALUES
  ('N#C/C(=C1/Nc2ccccc2S1)c1ccnc(NCCc2cccnc2)n1', '0.9 °C'),
  ('CSc1nc(-c2ccc(F)cc2)c(-c2ccnc(NC(C)c3ccccc3)c2)[nH]1 (racemic)', '-0.3 °C');

Provide Serine/threonine-protein kinase VRK3 (Homo sapiens) (UniProt Q8IV63) ΔTm reading for `Cc1cc(Nc2nc(-c3ccccc3)nc3ccccc23)n[nH]1` .
6.6 °C

Provide Serine/threonine-protein kinase VRK3 (Homo sapiens) (UniProt Q8IV63) ΔTm reading for `O=C1Nc2ccc(S(=O)(=O)O)cc2/C1=C1/Nc2ccccc2/C1=N\O` .
1.9 °C

---

Observed ΔTm for Serine/threonine-protein kinase PLK1 (Homo sapiens) (UniProt P53350), reported per entry below.
A number alone suffices; assume °C.

Known results for compounds:
INSERT INTO results (compound, outcome_measure, observed_value) VALUES
  ('O=S(=O)(c1cccc2c(Cl)cccc12)N1CCCNCC1', 'ΔTm', 0),
  ('CN(C)CC1CCn2c(c(C3=C(c4c[nH]c5ccccc45)C(=O)NC3=O)c3ccccc32)C1 (configuration not stated)', 'ΔTm', -0.2),
  ('COc1cc2ncnc(Nc3cccc(O)c3)c2cc1OC', 'ΔTm', 1),
  ('O=c1c(-c2ccc(O)cc2)coc2cc(O)cc(O)c12', 'ΔTm', 1.4),
  ('N#C/C(=C1/Nc2ccccc2S1)c1ccnc(NCCc2cccnc2)n1', 'ΔTm', 2.1);

Write down ΔTm measured for item `CC(C)c1cc(/C=C(\C#N)C(=O)NCCCc2ccccc2)cc(C(C)C)c1O`
0.4

Write down ΔTm measured for item `Cc1ccc(NC2=CC(=O)c3sc(C)nc3C2=O)cc1`
-0.2

Write down ΔTm measured for item `CC(C)n1cnc2c(NCc3ccccc3O)nc(NCCCO)nc21`
0.5

Write down ΔTm measured for item `NCCNc1ncc(C(N)=O)c(Nc2cccc(C(F)(F)F)c2)n1`
0.7
